Hello, the source for this data is patent US9375005B2, in case you need it.

Tested on: Uromyces appendiculatus
assay_name: In vivo preventive test on Uromyces appendiculatus (bean rust)
condition_parameters: dose 500 ppm; bean plants sprayed 24 h before contamination; grading 11 days after contamination
Description: Bean plants (“Saxa” variety), sown in starter cups on a 50/50 peat soil-pozzolana substrate and grown at 24° C., are treated at the 2-leaf stage (9 cm height) by spraying with the active ingredient prepared as described above. Plants, used as controls, are treated with the mixture of acetone/tween/DMSO/water not containing the active material. After 24 hours, the plants are contaminated by spraying the leaves with an aqueous suspension of Uromyces appendiculatus spores (150 000 spores per ml). […]

>  <compound>
CCC1(C)CCc2c(NC(=O)c3c(C(F)F)nn(C)c3Cl)cccc21 (single isomer, unassigned) [Example 52]

>  <Eff. %, %>
100

$$$$
>  <compound>
CC1CC(C)(C)c2c(C3CC3)ccc(NC(=O)c3c(C(F)F)nn(C)c3F)c21 (centres unmarked) [Example 17]

>  <Eff. %, %>
97

$$$$
>  <compound>
CC1c2cccc(NC(=O)c3c(C(F)F)nn(C)c3Br)c2CC1(C)C (centres unmarked) [Example 81]

>  <Eff. %, %>
99

$$$$
>  <compound>
CC1CC(C)c2c(NC(=O)c3c(C(F)F)nn(C)c3Cl)cccc21 (centres unmarked) [Example 44]

>  <Eff. %, %>
100

$$$$
>  <compound>
CC1CC(C)(C)c2c(Br)ccc(NC(=O)c3c(C(F)F)nn(C)c3Cl)c21 (centres unmarked) [Example 36]

>  <Eff. %, %>
77

$$$$
>  <compound>
CCCON=C1CCc2c(NC(=O)c3c(C(F)F)nn(C)c3Cl)cccc21 [Example 23]

>  <Eff. %, %>
82

$$$$
>  <compound>
CC1CC(CC(C)(C)C)c2cccc(NC(=S)c3c(C(F)F)nn(C)c3Cl)c21 (centres unmarked) [Example 98]

>  <Eff. %, %>
100

$$$$
>  <compound>
CC1c2c(NC(=O)c3c(C(F)F)nn(C)c3Cl)cccc2C(C)(C)C1C (centres unmarked) [Example 85]

>  <Eff. %, %>
99

$$$$
>  <compound>
Cn1nc(C(F)F)c(C(=S)Nc2cccc3c2CCC3C(C)(C)C)c1F (centres unmarked) [Example 75]

>  <Eff. %, %>
100

$$$$
>  <compound>
CC(C)CC1CCc2c(NC(=O)c3c(C(F)F)nn(C)c3Cl)cccc21 (centres unmarked) [Example 40]

>  <Eff. %, %>
100

$$$$
>  <compound>
CC(C)C1Cc2c(NC(=O)c3c(C(F)F)nn(C)c3Br)cccc2C1(C)C (centres unmarked) [Example 68]

>  <Eff. %, %>
100

$$$$
>  <compound>
Cn1nc(C(F)F)c(C(=O)Nc2cccc3c2CC(C2CCCC2)C3)c1Cl (centres unmarked) [Example 57]

>  <Eff. %, %>
100

$$$$
>  <compound>
CC1CC2(CC2)c2cccc(NC(=O)c3c(C(F)F)nn(C)c3Br)c21 (centres unmarked) [Example 76]

>  <Eff. %, %>
100

$$$$
>  <compound>
CC1CC(C)(C)c2c(I)ccc(NC(=O)c3c(C(F)F)nn(C)c3Cl)c21 (centres unmarked) [Example 20]

>  <Eff. %, %>
99

$$$$
>  <compound>
CC(C)CC1CCc2c(NC(=O)c3c(C(F)F)nn(C)c3Cl)cccc21 (centres unmarked) [Example 66]

>  <Eff. %, %>
100

$$$$
>  <compound>
Cc1ccc(NC(=O)c2c(C(F)F)nn(C)c2F)c2c1C(C)(C)CC2C (centres unmarked) [Example 19]

>  <Eff. %, %>
77

$$$$
>  <compound>
CC1CC(C)(C)c2c(Cl)ccc(NC(=O)c3c(C(F)F)nn(C)c3Cl)c21 (centres unmarked) [Example 12]

>  <Eff. %, %>
96

$$$$
>  <compound>
Cn1nc(C(F)F)c(C(=O)Nc2cccc3c2CC(Cc2ccccc2)C3)c1Cl (centres unmarked) [Example 39]

>  <Eff. %, %>
100

$$$$
>  <compound>
CC1Cc2c(NC(=O)c3c(C(F)F)nn(C)c3Cl)cccc2C1C (centres unmarked) [Example 62]

>  <Eff. %, %>
100

$$$$
>  <compound>
Cc1ccc(NC(=O)c2c(C(F)F)nn(C)c2Cl)c2c1C(C)(C)CC2C (centres unmarked) [Example 18]

>  <Eff. %, %>
76

$$$$
>  <compound>
CC1CC(C)(C)c2c(Br)ccc(NC(=S)c3c(C(F)F)nn(C)c3F)c21 (centres unmarked) [Example 55]

>  <Eff. %, %>
70

$$$$
>  <compound>
CON=C1CC(C)c2c(NC(=O)c3c(C(F)F)nn(C)c3Cl)cccc21 (centres unmarked) [Example 88]

>  <Eff. %, %>
100

$$$$
>  <compound>
Cn1nc(C(F)F)c(C(=O)Nc2cccc3c2CCC3C(C)(C)C)c1F (centres unmarked) [Example 97]

>  <Eff. %, %>
100

$$$$
>  <compound>
CC(C)C1Cc2c(NC(=O)c3c(C(F)F)nn(C)c3Cl)cccc2C1(C)C (centres unmarked) [Example 6]

>  <Eff. %, %>
100

$$$$
>  <compound>
CCC1(C)CCc2c(NC(=O)c3c(C(F)F)nn(C)c3Cl)cccc21 (single isomer, unassigned) [Example 53]

>  <Eff. %, %>
100

$$$$
>  <compound>
CC1Cc2c(NC(=O)c3c(C(F)F)nn(C)c3Br)cccc2C1(C)C (centres unmarked) [Example 13]

>  <Eff. %, %>
79

$$$$
>  <compound>
CC1Cc2cccc(NC(=O)c3c(C(F)F)nn(C)c3F)c2C1 (centres unmarked) [Example 7]

>  <Eff. %, %>
100

$$$$
>  <compound>
CC1CC(C)(C)c2c(C3CC3)ccc(NC(=O)c3c(C(F)F)nn(C)c3Cl)c21 (centres unmarked) [Example 16]

>  <Eff. %, %>
95

$$$$
>  <compound>
CC1CC(C)c2c(NC(=O)c3c(C(F)F)nn(C)c3Cl)cccc21 (centres unmarked) [Example 43]

>  <Eff. %, %>
100

$$$$
>  <compound>
CC1CC(CC(C)(C)C)c2cccc(NC(=O)c3c(C(F)F)nn(C)c3F)c21 (centres unmarked) [Example 70]

>  <Eff. %, %>
100

$$$$
>  <compound>
CCON=C1CC(C)c2c(NC(=O)c3c(C(F)F)nn(C)c3Cl)cccc21 (centres unmarked) [Example 82]

>  <Eff. %, %>
99

$$$$
>  <compound>
Cn1nc(C(F)F)c(C(=O)Nc2cccc3c2CCC32CC2)c1Cl [Example 14]

>  <Eff. %, %>
100

$$$$
>  <compound>
CC(C)C1Cc2c(NC(=S)c3c(C(F)F)nn(C)c3Cl)cccc2C1(C)C (centres unmarked) [Example 94]

>  <Eff. %, %>
99

$$$$
>  <compound>
CC1CC2(CC2)c2cccc(NC(=O)c3c(C(F)F)nn(C)c3Cl)c21 (centres unmarked) [Example 51]

>  <Eff. %, %>
100

$$$$
>  <compound>
Cn1nc(C(F)F)c(C(=O)Nc2cccc3c2CC(C)(C)C3)c1Br [Example 71]

>  <Eff. %, %>
99

$$$$
